We begin with a simple list: items and their reported pIC50.
Target: Prostaglandin G/H synthase 1 (Ovis aries, UniProt P05979)
Sequence (P05979 whole entry): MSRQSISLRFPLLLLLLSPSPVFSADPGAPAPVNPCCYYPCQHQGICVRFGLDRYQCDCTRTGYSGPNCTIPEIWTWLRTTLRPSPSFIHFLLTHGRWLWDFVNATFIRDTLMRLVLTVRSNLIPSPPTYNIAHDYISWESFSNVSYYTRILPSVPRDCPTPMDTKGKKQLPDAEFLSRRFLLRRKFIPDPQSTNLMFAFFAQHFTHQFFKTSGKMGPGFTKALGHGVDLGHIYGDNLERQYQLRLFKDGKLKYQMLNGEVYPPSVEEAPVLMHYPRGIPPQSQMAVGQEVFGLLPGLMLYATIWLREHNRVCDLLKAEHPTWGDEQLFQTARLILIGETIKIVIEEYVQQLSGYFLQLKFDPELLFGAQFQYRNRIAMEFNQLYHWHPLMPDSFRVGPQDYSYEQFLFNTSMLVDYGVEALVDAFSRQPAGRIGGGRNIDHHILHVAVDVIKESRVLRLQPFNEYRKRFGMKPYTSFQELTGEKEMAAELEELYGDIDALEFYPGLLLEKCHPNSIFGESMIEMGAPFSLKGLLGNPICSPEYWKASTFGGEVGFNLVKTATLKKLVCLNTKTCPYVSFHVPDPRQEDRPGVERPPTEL
Assay: Inhibition of ovine COX1 assessed as inhibition of PGF2a production by enzyme immunoassay
pIC50: −log10 of the molar value.
observation type: pIC50

item smiles | measured
O=C1N/C(=N\c2nccs2)S/C1=C\c1cc(Br)ccc1O | 4.19
O=C1N/C(=N\c2nccs2)S/C1=C\c1cccc(O)c1 | 4.80
O=C1N/C(=N\c2nccs2)S/C1=C\c1c(Cl)cccc1Cl | 4.11
Cc1ccc(/C=C2\S/C(=N/c3nccs3)NC2=O)cc1 | 4.29
O=C1N/C(=N\c2nccs2)S/C1=C\c1ccc(Cl)cc1Cl | 4.49
O=C1N/C(=N\c2nccs2)S/C1=C\c1cccc(Cl)c1Cl | 5.00

* * *

Target: Prostaglandin G/H synthase 1 (Ovis aries)
Assay: Inhibition of ovine COX1 assessed as inhibition of PGF2a production by enzyme immunoassay
Design: concentration or dose not given beside the values
Conditions: concentration not given here
We begin with a simple list: items and their reported inhibition.

item smiles | inhibition
Cc1cnc(/N=C2\NC(=O)/C(=C/c3ccc([N+](=O)[O-])cc3)S2)s1 | 68%
O=C1N/C(=N\c2nccs2)S/C1=C\c1cccc(O)c1 | 98%
O=C1N/C(=N\c2nccs2)S/C1=C\c1c(Cl)cccc1Cl | 100%

* * *

We begin with a simple list: items and their reported MIC.
System: Penicillium ochrochloron
Experiment: Antifungal activity against Penicillium ochrochloron ATCC 9112 after 72 hrs by serial dilution technique
Format: functional
Conditions: ATCC 9112, 72 h
observation type: MIC

compound | observation type | measured
c1ccc(-c2ccc(C(c3ccccc3)n3ccnc3)cc2)cc1 (stereo unspecified) | MIC | 480 µM
O=C1N/C(=N\c2nccs2)S/C1=C\c1cccc(Cl)c1Cl | MIC | 42.1 µM
O=C1N/C(=N\c2nccs2)S/C1=C\c1cccc(Br)c1 | MIC | 18 µM
COc1ccccc1/C=C1\S/C(=N/c2nccs2)NC1=O | MIC | 15.8 µM
O=C1N/C(=N\c2nccs2)S/C1=C\c1c(Cl)cccc1Cl | MIC | 28.1 µM
O=C1N/C(=N\c2nc(-c3ccccc3)cs2)S/C1=C\c1ccc(Cl)cc1 | MIC | 13.7 µM
CN(C)c1ccc(/C=C2\S/C(=N/c3nccs3)NC2=O)cc1 | MIC | 7.6 µM
Cc1cnc(/N=C2\NC(=O)/C(=C/c3ccc([N+](=O)[O-])cc3)S2)s1 | MIC | 15.8 µM
Cc1csc(/N=C2\NC(=O)/C(=C/c3ccccc3Cl)S2)n1 | MIC | 14.9 µM
O=C1N/C(=N\c2nccs2)S/C1=C\c1cccc(F)c1 | MIC | 32.7 µM
CC(=O)N1CCN(c2ccc(OCC3COC(Cn4ccnc4)(c4ccc(Cl)cc4Cl)O3)cc2)CC1 (stereo unspecified) | MIC | 3800 µM
O=C1N/C(=N\c2nccs2)S/C1=C\c1ccc(Cl)cc1Cl | MIC | 42.1 µM
O=C1N/C(=N\c2nccs2)S/C1=C\c1ccc(F)cc1 | MIC | 32.7 µM
COc1ccc(OC)c(/C=C2\S/C(=N/c3nccs3)NC2=O)c1 | MIC | 58 µM
Cc1ccc(/C=C2\S/C(=N/c3nccs3)NC2=O)cc1 | MIC | 33 µM
O=C1N/C(=N\c2nc(-c3ccccc3)cs2)S/C1=C\c1ccccc1Cl | MIC | 11.7 µM
O=C1N/C(=N\c2nccs2)S/C1=C\c1ccc(Br)cc1 | MIC | 13.7 µM
Cc1csc(/N=C2\NC(=O)/C(=C/c3ccc(Cl)cc3)S2)n1 | MIC | 7.6 µM
O=C1N/C(=N\c2nc(-c3ccccc3)cs2)S/C1=C\c1cccc(Cl)c1 | MIC | 19 µM
O=C1N/C(=N\c2nccs2)S/C1=C\c1cc(Br)ccc1O | MIC | 17 µM
O=C1N/C(=N\c2nc(-c3ccccc3)cs2)S/C1=C\c1ccccc1 | MIC | 19 µM
